Biological target: CCKB receptor (Mus musculus)
Construct: The whole brains from male mice (CD1 22-25 g; Charles River) were removed; from tissue; host or cells: cerebral cortex membranes of male CD1 mice
Sequence (P56481 whole entry): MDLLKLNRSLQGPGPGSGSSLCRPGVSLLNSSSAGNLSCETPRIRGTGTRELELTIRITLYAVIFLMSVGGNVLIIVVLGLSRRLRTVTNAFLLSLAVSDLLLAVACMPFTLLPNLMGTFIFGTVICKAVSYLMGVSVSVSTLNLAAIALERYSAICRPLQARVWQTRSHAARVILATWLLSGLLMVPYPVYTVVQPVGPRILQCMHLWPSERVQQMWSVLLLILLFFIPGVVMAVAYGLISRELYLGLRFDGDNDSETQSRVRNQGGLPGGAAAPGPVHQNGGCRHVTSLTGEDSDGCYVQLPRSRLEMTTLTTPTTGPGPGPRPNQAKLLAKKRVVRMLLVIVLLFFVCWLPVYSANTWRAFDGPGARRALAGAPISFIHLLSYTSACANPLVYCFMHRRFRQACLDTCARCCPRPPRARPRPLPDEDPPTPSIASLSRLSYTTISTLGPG
Assay: CCKB receptor radioligand binding assay in mouse cortical membranes
Conditions: [125I]-CCK8(S) 200 pM, 150 min at 21±3°, read-out: CCKB pKi (converted)
Attribute: Ki

{"Compound": "O=C(O)c1cccc(NC(=O)c2nc(-c3ccccc3O)[nH]c2CCC23CC4CC(CC(C4)C2)C3)c1", "Ki / µM": 1.38}
{"Compound": "CCC(CC)c1nc(C(=O)Nc2ccc(C)c(C(=O)O)c2)c(CCC23CC4CC(CC(C4)C2)C3)[nH]1", "Ki / µM": 0.00724}
{"Compound": "O=C(O)c1cccc(NC(=O)c2nc(-c3ccc(Cl)c(Cl)c3)[nH]c2CCC23CC4CC(CC(C4)C2)C3)c1", "Ki / µM": 0.468}
{"Compound": "Cc1ccc(NC(=O)c2nc(C3CC4C=CC3C4)[nH]c2CCC23CC4CC(CC(C4)C2)C3)cc1C(=O)O (racemic)", "Ki / µM": 0.00229}
